# Assayed system: SHP2 (Homo sapiens (Human), UniProt Q06124)
# Sequence (Q06124 whole entry): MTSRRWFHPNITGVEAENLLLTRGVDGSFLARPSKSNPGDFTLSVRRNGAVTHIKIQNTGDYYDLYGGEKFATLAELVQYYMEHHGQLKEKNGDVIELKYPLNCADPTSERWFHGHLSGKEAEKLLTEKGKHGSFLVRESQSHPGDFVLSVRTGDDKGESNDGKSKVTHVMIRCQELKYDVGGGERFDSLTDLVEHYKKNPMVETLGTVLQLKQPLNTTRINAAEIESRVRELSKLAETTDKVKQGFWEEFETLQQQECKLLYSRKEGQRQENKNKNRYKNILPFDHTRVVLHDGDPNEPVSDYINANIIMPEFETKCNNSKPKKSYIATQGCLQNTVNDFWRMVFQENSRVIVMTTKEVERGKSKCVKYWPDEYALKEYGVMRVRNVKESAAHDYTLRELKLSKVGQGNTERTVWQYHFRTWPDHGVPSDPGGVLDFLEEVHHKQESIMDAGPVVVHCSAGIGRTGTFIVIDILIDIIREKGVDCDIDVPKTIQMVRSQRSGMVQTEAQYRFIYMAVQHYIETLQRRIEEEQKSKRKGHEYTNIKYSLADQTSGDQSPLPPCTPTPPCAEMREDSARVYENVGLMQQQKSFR
# Measurement notes: SHP2 Allosteric Inhibition Assay (DiFMUP prompt fluorescence)
# Measurement setup: 0.25 nM SHP2 activated with 0.5 μM peptide IRS1_pY1172(dPEG8)pY1222; substrate DiFMUP 100 μM
Assign IC50 to each entry below.

INPUT: // returns reported IC50 for input NC[C@H]1CCCC[C@@H]1Nc1cnc2c(-c3cccc(Cl)c3F)n[nH]c2n1 (mixture of isomers)
OUTPUT: < 1000 nM

INPUT: // returns reported IC50 for input CN(c1cnc2c(-c3cccc(Cl)c3F)n[nH]c2n1)[C@@H]1CCC[C@H]1CN (single isomer, unassigned)
OUTPUT: < 1000 nM

INPUT: // returns reported IC50 for input CN(c1cnc2c(Oc3ccnc(Cl)c3Cl)n[nH]c2n1)[C@@H]1CCCC[C@@H]1N
OUTPUT: < 1000 nM

INPUT: // returns reported IC50 for input CN(c1cnc2c(N3CCCc4ncccc43)n[nH]c2n1)[C@@H]1CCC[C@@H]1N (single isomer, unassigned)
OUTPUT: 1000 to 10000 nM

INPUT: // returns reported IC50 for input NC[C@H]1CCCC[C@H]1Nc1cnc2c(-c3cccc(Cl)c3F)n[nH]c2n1 (mixture of isomers) [Example 13]
OUTPUT: < 1000 nM

INPUT: // returns reported IC50 for input CN(c1cnc2c(N3CCCc4ncccc43)n[nH]c2n1)[C@@H]1CCCC[C@@H]1N (single isomer, unassigned)
OUTPUT: 1000 to 10000 nM

INPUT: // returns reported IC50 for input CN(c1cnc2c(N3CCCc4ncccc43)n[nH]c2n1)[C@@H]1CCOC[C@@H]1N
OUTPUT: 1000 to 10000 nM

###

# Assayed system: SHP2 (Homo sapiens (Human))
# Measurement notes: SHP2 Allosteric Inhibition Assay (DiFMUP prompt fluorescence)
# Measurement setup: 0.25 nM SHP2 activated with 0.5 μM peptide IRS1_pY1172(dPEG8)pY1222; substrate DiFMUP 100 μM
pIC50: −log10 of the molar value.
Attribute measured: pIC50

INPUT: // returns reported pIC50 for input CN(c1cnc2c(-c3cccc(Cl)c3F)n[nH]c2n1)[C@@H]1CCCC[C@H]1N (single isomer, unassigned)
OUTPUT: > 6.00

INPUT: // returns reported pIC50 for input CN(c1cnc2c(-c3cccc(Cl)c3F)n[nH]c2n1)[C@H]1CCCC[C@H]1CN
OUTPUT: > 6.00

INPUT: // returns reported pIC50 for input CN(c1cnc2c(-c3cccc(Cl)c3F)n[nH]c2n1)[C@H]1CCCC[C@@H]1N (single isomer, unassigned) [Example 23]
OUTPUT: 5.00 to 6.00

INPUT: // returns reported pIC50 for input CN(c1cnc2c(N3CCCc4ncccc43)n[nH]c2n1)[C@@H]1COC[C@@H]1N (single isomer, unassigned)
OUTPUT: ≤ 5.00

INPUT: // returns reported pIC50 for input CN(c1cnc2c(Sc3ccccc3Cl)n[nH]c2n1)[C@@H]1CCCC[C@@H]1N
OUTPUT: > 6.00

INPUT: // returns reported pIC50 for input CN(C[C@H]1CC[C@H](N)C1)c1cnc2c(-c3cccc(Cl)c3F)n[nH]c2n1
OUTPUT: > 6.00

INPUT: // returns reported pIC50 for input CN(c1cnc2c(-c3cccc(Cl)c3F)n[nH]c2n1)[C@H]1CCCC[C@H]1N (mixture of isomers)
OUTPUT: > 6.00

INPUT: // returns reported pIC50 for input CN(c1cnc2c(N3CCc4c(C(N)=O)cccc43)n[nH]c2n1)[C@@H]1CCCC[C@@H]1N
OUTPUT: > 6.00

INPUT: // returns reported pIC50 for input CN(c1cnc2c(Oc3ccnc(Cl)c3Cl)n[nH]c2n1)[C@H]1CCCC[C@H]1N
OUTPUT: 5.00 to 6.00

INPUT: // returns reported pIC50 for input CN(c1cnc2c(-c3cccc(Cl)c3F)n[nH]c2n1)[C@@H]1CCCC[C@@H]1CN
OUTPUT: > 6.00

INPUT: // returns reported pIC50 for input CN(c1cnc2c(-c3ccnc(Cl)c3F)n[nH]c2n1)[C@@H]1CCCC[C@@H]1N
OUTPUT: > 6.00

INPUT: // returns reported pIC50 for input CN(c1cnc2c(N3CCCc4ncccc43)n[nH]c2n1)[C@H]1CCC[C@H]1N
OUTPUT: ≤ 5.00

INPUT: // returns reported pIC50 for input CN(c1cnc2c(-c3cccc(Cl)c3F)n[nH]c2n1)[C@H]1CCC[C@@H]1CN (single isomer, unassigned)
OUTPUT: > 6.00

INPUT: // returns reported pIC50 for input CN(c1cnc2c(-c3cccc(Cl)c3F)n[nH]c2n1)[C@@H]1CCC[C@@H]1CN (single isomer, unassigned)
OUTPUT: > 6.00

INPUT: // returns reported pIC50 for input N[C@@H]1CCCC[C@@H]1Nc1cnc2c(-c3cccc(Cl)c3F)n[nH]c2n1 (single isomer, unassigned)
OUTPUT: 5.00 to 6.00
